Test: Cmax in rat at 1 mg/kg, po
Format: ADME, organism-based
Parameters: dose 1 mg/kg, route oral
Details: in vivo
Readout name: Cmax (ng/mL)

* Cc1cc(C(=O)N2CCC3(CC2)CN(C(=O)Nc2ccc(OC(F)(F)F)cc2)CCO3)no1 | 9.58

[A] Cc1cnc(C(=O)N2CCC3(CC2)CN(C(=O)Nc2ccc(OC(F)(F)F)cc2)CCO3)cn1
[B] O=C(Nc1ccc(OC(F)(F)F)cc1)N1CCOC2(CCN(C(=O)c3ccccc3F)CC2)C1
Query: Identify the entry with the larger Cmax. Options: A and B Choose, then provide that item's label.
Reply: B

----------
Experiment: Volume of distribution at steady state in rat at 0.2 mg/kg, iv
Assay type: ADME, organism-based
Set-up: dose 0.2 mg/kg, route intravenous
Conditions: in vivo, read-out: Vdss
Readout name: Vd (L/kg)

- Cc1cc(C(=O)N2CCC3(CC2)CN(C(=O)Nc2ccc(OC(F)(F)F)cc2)CCO3)no1: 3.31

[I] O=C(Nc1ccc(OC(F)(F)F)cc1)N1CCOC2(CCN(C(=O)c3ccccc3F)CC2)C1
[II] Cc1cnc(C(=O)N2CCC3(CC2)CN(C(=O)Nc2ccc(OC(F)(F)F)cc2)CCO3)cn1
Query: Lab note: check whether I or II has the lower measured Vd. Choose, then provide that item's label.
Reply: II
(II: 1.82 L/kg, I: 3.56 L/kg)
